Measured Neutralizing activity IC50 values are reported for all entries that follow.
target: baboon EL (baboon); experiment: cell-based or functional assay
Answer in nM, number only, no unit symbol.

{"Binder": "h16F6-S1 (antibody, V domains shown, humanized) VH: QVQLVQSGAEVKKPGASVKVSCKASGYTFTTYWIAWVRQAPGQGLEWMGEILPGSAKTKYNKKFKGRVTMTRDTSTSTVYMELSSLRSEDTAVYYCAVYDYGADYWGQGTTVTVSS VL: DIQMTQSPSSLSASVGDRVTITCKASQDVYTAVAWYQQKPGKSPKLLIYSASYRFTGVPSRFSGSGSGTDFTLTISSLQPEDFATYYCQQHYSIPRTFGGGTKVEIK", "Units": "nM", "Result": 2.6}

Prompt: Hello, please tell me recorded Neutralizing activity IC50 for this one: h16F6-S3 (antibody, V domains shown) VH: QVQLVQSGAEVKKPGASVKVSCKASGYTFTTYWIAWVRQAPGQGLEWMGEILPGSAKTKYNKKFKGRVTMTRDTSTSTVYMELSSLRSEDTAVYYCAVYDYGADYWGQGTTVTVSS VL: DIQMTQSPSSLSASVGDRVTITCKASQDVYTAVAWYQQKPGKSPKLLIYSASYRFTGVPSRFTGSGAGTDFTLTISSLQPEDFATYYCQQHYSIPRTFGGGTKVEIK
Completion: 3.1

Prompt: Hello, please tell me recorded Neutralizing activity IC50 for this one: h16F6-S5 (antibody, V domains shown) VH: QVQLVQSGAEVKKPGASVKVSCKASGYTFTTYWIAWVRQAPGQGLEWMGEILPGSAKTKYNKKFKGRVTMTRDTSTSTVYMELSSLRSEDTAVYYCAVYDYGADYWGQGTTVTVSS VL: DIQMTQSPSSLSASVGDRVSITCKASQDVYTAVAWYQQKPGKSPKLLIYSASYRFTGVPSRFTGSGAGTDFTFTISSLQPEDFATYYCQQHYSIPRTFGGGTKVEIK
Completion: 2
